Biological target: T1, full-length human 14-3-3σ fused to the C terminus of MBP (human, UniProt P31947 1-248)
T1 chain: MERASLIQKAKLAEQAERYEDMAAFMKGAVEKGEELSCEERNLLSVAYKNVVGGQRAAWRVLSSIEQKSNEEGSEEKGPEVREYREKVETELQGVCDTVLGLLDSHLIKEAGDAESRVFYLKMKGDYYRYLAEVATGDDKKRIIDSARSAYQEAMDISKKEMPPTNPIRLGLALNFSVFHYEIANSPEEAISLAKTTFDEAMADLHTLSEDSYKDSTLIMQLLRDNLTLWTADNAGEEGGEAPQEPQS
Assay: FP
Non-standard residues stand in square brackets, D forms with d. No end group written: not given here. *: point of attachment. Biotin = O=C1N[C@H]2[C@H](CS[C@H]2CCCCC(=O)*)N1; pT = C[C@@H](OP(=O)(O)O)[C@H](N)C(=O)O; ttds = NCCCOCCOCCOCCCNC(=O)CCC(=O)*
value.kind: Kd

Sample answers from the record:
binder: {Biotin-ttds}-RRVRKLPST[pT]L [RSK1 phospho-PBM peptide RSK1_-1P]
Kd: 1.7 µM
--
binder: {Biotin-ttds}-RRVRKLPS[pT]TL [RSK1 phospho-PBM peptide RSK1_-2P]
Kd: 3.6 µM
--
binder: {Biotin-ttds}-RLQRRRE[pT]QV [HPV18 E6 phospho-PBM peptide p18E6]
Kd: 139 µM

# context switch: different binder, same Kd
Need Kd of {Biotin-ttds}-SSRTRRE[pT]QL [HPV16 E6 phospho-PBM peptide p16E6] , thanks.
> 300 µM
